- Target Entity: Dual specificity tyrosine-phosphorylation-regulated kinase 1A (Homo sapiens, UniProt Q13627)
- Cond: dose 250.0 nM
Property: inhibition (%)

O=C(Cc1ccccc1)Nc1ccc(NC(=O)Nc2nc3ccc(O)cc3s2)cc1 : 75
O=C(Nc1ccc(NS(=O)(=O)c2cccc(F)c2)cc1)Nc1nc2ccc(O)cc2s1 : 79
O=C(Nc1ccc(NC(=O)c2ccccc2)cc1)Nc1nc2ccc(O)cc2s1 : 65
O=C(Nc1ccc(NC(=O)C2CCNCC2)cc1)Nc1nc2ccc(O)cc2s1 : 69
O=C(Nc1ccc(NC(=O)C2CC2)cc1)Nc1nc2ccc(O)cc2s1 : 62

====

- Test Description: Permeability of the compound in PBS/EtOH buffer (7:3) incubated for 16 hrs by PAMPA-BBB assay
Property: Papp at 16 h (×10⁻⁶ cm/s)

Sample answers from the record:
O=C(Nc1ccc(NC(=O)C2CCNCC2)cc1)Nc1nc2ccc(O)cc2s1 : 4.4
O=C(Cc1ccccc1)Nc1ccc(NC(=O)Nc2nc3ccc(O)cc3s2)cc1 : 7.9

P = O=C(Nc1ccc(NC(=O)c2cccc(O)c2)cc1)Nc1nc2ccc(O)cc2s1
Q = CCn1cc(C(=O)O)c(=O)c2cc(F)c(N3CCNCC3)cc21
Which has the higher Papp at 16 h, P or Q ? Output the label that corresponds to your choice.
P
(P: 6.5 ×10⁻⁶ cm/s, Q: 1.1 ×10⁻⁶ cm/s)

====

- Target Entity: Dual specificity tyrosine-phosphorylation-regulated kinase 2 (Homo sapiens)
- Sequence (Q92630 whole entry): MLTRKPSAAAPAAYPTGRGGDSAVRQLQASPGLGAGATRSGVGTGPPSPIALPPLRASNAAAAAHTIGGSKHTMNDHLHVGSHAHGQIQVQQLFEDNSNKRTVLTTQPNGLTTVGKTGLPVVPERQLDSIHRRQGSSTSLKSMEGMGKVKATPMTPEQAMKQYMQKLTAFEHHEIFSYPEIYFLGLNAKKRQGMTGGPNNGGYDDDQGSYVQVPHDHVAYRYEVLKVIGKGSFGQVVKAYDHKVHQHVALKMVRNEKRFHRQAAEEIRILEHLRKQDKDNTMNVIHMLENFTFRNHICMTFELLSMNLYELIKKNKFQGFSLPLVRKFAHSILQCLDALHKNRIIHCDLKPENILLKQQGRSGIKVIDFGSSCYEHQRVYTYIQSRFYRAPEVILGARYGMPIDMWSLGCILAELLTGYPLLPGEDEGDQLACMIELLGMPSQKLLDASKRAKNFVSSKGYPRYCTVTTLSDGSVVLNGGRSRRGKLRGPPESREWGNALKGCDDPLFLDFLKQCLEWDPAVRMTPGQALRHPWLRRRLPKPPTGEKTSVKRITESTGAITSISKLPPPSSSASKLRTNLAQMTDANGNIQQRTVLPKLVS
pIC50: −log10 of the molar value.
Property: pIC50

Given the compound `CN1CCN(C(=O)c2ccc(NC(=O)Nc3nc4ccc(O)cc4s3)cc2)CC1` , what is its reported pIC50?
< 5.30

====

- Target Entity: Dual specificity tyrosine-phosphorylation-regulated kinase 1A (Homo sapiens, UniProt Q13627)
- Test Description: Inhibition of human Dyrk1A
Property: pIC50
Note on pIC50: it is the negative log10 of concentration, concentration in mol/L.

Given the entry `CN1CCN(C(=O)c2ccc(NC(=O)Nc3nc4ccc(O)cc4s3)cc2)CC1` , report its measured pIC50.
7.03

====

- Target Entity: UniProtKB Q9Y463
- Sequence (Q9Y463 whole entry, looked up): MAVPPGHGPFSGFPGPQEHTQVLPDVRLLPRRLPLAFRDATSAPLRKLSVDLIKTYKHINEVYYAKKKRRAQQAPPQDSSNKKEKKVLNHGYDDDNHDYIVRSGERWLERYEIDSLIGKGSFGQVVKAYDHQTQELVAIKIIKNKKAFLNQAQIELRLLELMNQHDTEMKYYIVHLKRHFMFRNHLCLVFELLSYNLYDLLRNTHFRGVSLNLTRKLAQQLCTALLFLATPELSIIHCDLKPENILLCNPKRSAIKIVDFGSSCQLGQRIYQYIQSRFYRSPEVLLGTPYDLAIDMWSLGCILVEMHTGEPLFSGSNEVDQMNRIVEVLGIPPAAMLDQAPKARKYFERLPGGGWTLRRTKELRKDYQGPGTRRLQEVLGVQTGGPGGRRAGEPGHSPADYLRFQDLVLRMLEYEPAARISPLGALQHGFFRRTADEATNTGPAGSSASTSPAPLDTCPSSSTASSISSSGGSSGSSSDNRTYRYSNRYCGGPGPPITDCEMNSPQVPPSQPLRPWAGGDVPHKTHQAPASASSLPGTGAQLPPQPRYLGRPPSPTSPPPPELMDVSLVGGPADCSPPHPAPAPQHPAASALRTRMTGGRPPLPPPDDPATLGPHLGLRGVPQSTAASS
- Test Description: Inhibition of human recombinant DYRK1B at 1 uM using KKISGRLSPIMTEQ as substrate incubated in presence of ATP relative to control
Property: inhibition (%)

O=C(Nc1ccc(NC(=O)C2CCC2)cc1)Nc1nc2ccc(O)cc2s1 : 26
O=C(Nc1ccc(NC(=O)c2cccc(Cl)c2)cc1)Nc1nc2ccc(O)cc2s1 : 18
O=C(Nc1ccc(NC(=O)c2ccc(Cl)cc2)cc1)Nc1nc2ccc(O)cc2s1 : 6
O=C(Nc1ccc(NS(=O)(=O)c2ccccc2)cc1)Nc1nc2ccc(O)cc2s1 : 18
O=C(Nc1ccc(NC(=O)c2c(F)cc(F)cc2F)cc1)Nc1nc2ccc(O)cc2s1 : 17
O=C(Nc1cccc(NS(=O)(=O)c2cccc(F)c2)c1)Nc1nc2ccc(O)cc2s1 : 10
O=C(Nc1ccc(NC(=O)C2CCNCC2)cc1)Nc1nc2ccc(O)cc2s1 : 51
O=C(Nc1ccc(NC(=O)c2cc(Cl)cc(Cl)c2)cc1)Nc1nc2ccc(O)cc2s1 : 11

a = O=C(Nc1ccc(NC(=O)c2cc(F)c(F)c(F)c2)cc1)Nc1nc2ccc(O)cc2s1
b = O=C(Nc1ccc(NS(=O)(=O)c2ccccc2F)cc1)Nc1nc2ccc(O)cc2s1
In terms of reported inhibition, does a or b have the smaller number? Choose, then provide that item's label.
a
